Reference for the values: the supplement of paper PMC7125110

self-cleavage kobs at 2500 uM GlcN6P overview
B1: glmS ribozyme (parent)
chain: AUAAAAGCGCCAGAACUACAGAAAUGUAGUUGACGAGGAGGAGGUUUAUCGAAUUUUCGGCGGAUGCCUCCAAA

# Variants of: B1
# methodNotes: self-cleavage kobs at 2500 uM GlcN6P; higher = faster cleavage; RNA array
# conditionDescription: with glucosamine-6-phosphate
Fewer inactive variants are shown than the library holds.

G44U A48U | < 1e-05 s⁻¹
A6U G9C A33C C50G A52C U56C C68A C71U | < 1e-05 s⁻¹
A36U A48U | < 1e-05 s⁻¹
G9A U31G | < 1e-05 s⁻¹

**Query** Report self-cleavage kobs at 2500 uM GlcN6P for C10U G37A G63A please.
**Result** < 1e-05 s⁻¹

**Query** Then this variant: C11A A33U U45A
**Result** < 1e-05 s⁻¹

**Query** Then this variant: C11G C16G
**Result** < 1e-05 s⁻¹

**Query** Then this variant: G41U G66C C68U
**Result** < 1e-05 s⁻¹
